src = patent US11259522B2

What LC50 was measured for each of the following?
test system: Aedes aegypti Liverpool strain (insecticide susceptible, LVP) L3 larvae; test: Mosquito larval dose response assay, LVP strain; conditions: 72 h, read-out: Lethal Concentration (LC50) LVP Strain
One number for each entry, in µg/mL.

compound="CC(C)C(=O)C1C(=O)C(C)(C)C(=O)C(C)(C)C1=O [Flavesone]" experimentalvalue=39.7
compound="CCOC(=O)CC(SP(=S)(OC)OC)C(=O)OCC (stereo not shown) [Malathion, malathion]" experimentalvalue=0.0298
compound="CC1(C)C(C=C(Cl)Cl)C1C(=O)OCc1cccc(Oc2ccccc2)c1 (stereo not shown) [Permethrin, permethrin]" experimentalvalue=0.0166

Q) Item under review: CC1(C)[C@H](C(=O)O[C@H](C#N)c2cccc(Oc3ccccc3)c2)[C@@H]1C=C(Br)Br [Deltamethrin, deltamethrin, reference compound] . Reported LC50?
A) 0.0037
